The reported numbers originate from patent US6472526B1.

# target or test system: Ras farnesyl transferase (Homo sapiens, UniProt P49354+P49356)
# Construct: made in house
# method description: In vitro inhibitory activity for Ras farnesyl transferase, K-Ras substrate
# Format: biochemical
# run conditions: in vitro farnesyl transferase assay, K-Ras; read-out: K-Ras IC50
readout type: pIC50
Scale note: pIC50 = -log10(concentration in M).

{"columns": ["compound", "target or test system", "readout type", "observed result"],
 "data": [
  ["COCCN(C)C(=O)c1cn(Cc2cncn2Cc2ccccc2Cl)cc1-c1cccc2ccccc12", "Ras farnesyl transferase (Homo sapiens, UniProt P49354+P49356)", "pIC50", 8.70],
  ["N#Cc1ccc(Cn2cncc2Cn2cc(C(=O)c3ccccc3)c(-c3cccc4ccccc34)c2)cc1", "Ras farnesyl transferase (Homo sapiens, UniProt P49354+P49356)", "pIC50", 6.80],
  ["CC(c1ccccc1)n1cncc1Cn1cc(C(=O)N2CCN(C)CC2)c(-c2cccc3ccccc23)c1 (stereo in doubt)", "Ras farnesyl transferase (Homo sapiens, UniProt P49354+P49356)", "pIC50", 8.30]
]}

Now, please, on to the next compound.
// lookup pIC50 for COCCN(C)C(=O)c1cn(Cc2cncn2CCc2ccccc2OC)cc1-c1cccc2ccccc12
8.52

* * *

# target or test system: Ras farnesyl transferase (Rattus norvegicus, UniProt Q02293+Q04631)
# Construct: endogenous in cells; host or cells: Rat2 fibroblasts transformed with H-Ras or with an H-Ras/K-Ras C-terminus fusion
# method description: In vivo (cellular) inhibitory activity for Ras farnesyl transferase, Rat2 cell line which expresses C-Harvey-Ras protein
# Format: cell-based
readout type: IC50

{"columns": ["smiles code", "IC50"],
 "data": [
  ["O=C(c1cn(Cc2c[nH]cn2)cc1-c1cccc2ccccc12)c1cccc2ccccc12", "1000 to 50000 nM"]
]}

Entry O=C1CCN(C(=O)c2cn(Cc3c[nH]cn3)cc2-c2cccc3ccccc23)CC1 has what IC50?
1000 to 50000 nM

Now the compound O=C(c1ccn(Cc2cncn2Cc2ccc(Br)cc2)c1)c1cccc2ccccc12
1000 to 10000 nM

Continue with N#Cc1ccc(Cn2cncc2Cn2ccc(C(=O)c3cccc4ccccc34)c2)cc1
70 nM

Now give it for COCCN(C)C(=O)c1cn(Cc2cncn2Cc2ccc(Br)cc2)cc1C(=O)c1cccc2ccccc12 too.
1000 to 10000 nM

* * *

# target or test system: Ras farnesyl transferase (Rattus norvegicus, UniProt Q02293+Q04631)
# Construct: endogenous in cells; host or cells: Rat2 fibroblasts transformed with H-Ras or with an H-Ras/K-Ras C-terminus fusion
# method description: In vivo (cellular) inhibitory activity for Ras farnesyl transferase, Rat2 cell line transformed with fused protein of H-Ras substituted with polybasic lysine domain at C-terminus of K-Ras
# Format: cell-based
# run conditions: Rat2 cell line transformed with H-Ras fused with polybasic lysine domain of K-Ras C-terminus; concentration inhibiting 50% of farnesyl bonding; read-out: K-Ras CIC50
readout type: IC50

# example entries with known answers
{"columns": ["smiles code", "IC50"],
 "data": [
  ["O=C(c1nc(Cc2cnc[nH]2)oc1-c1cccc2ccccc12)N1CCOCC1", "> 50 µM"],
  ["CN1CCN(C(=O)c2cn(Cc3cncn3CCc3cccc(Cl)c3)cc2-c2cccc3ccccc23)CC1", "10 to 50 µM"],
  ["COc1ccc(CCn2cncc2Cn2cc(C(=O)N3CCN(C)CC3)c(-c3cccc4ccccc34)c2)cc1", "10 to 50 µM"],
  ["CSCC[C@H](NC(=O)c1cn(Cc2cncn2Cc2ccc(C#N)cc2)cc1-c1cccc2ccccc12)C(=O)O", "> 50 µM"],
  ["O=C(c1cn(Cc2cncn2Cc2ccc3c(c2)OCO3)cc1-c1cccc2ccccc12)N1CCOCC1", "10 to 50 µM"]
]}

What value of measured IC50 is listed for COCCN(C)C(=O)c1cn(Cc2cncn2CCc2cccc(Cl)c2)cc1-c1cccc2ccccc12 ?
10 to 50 µM

Can you handle C[C@@H](c1ccccc1)n1cncc1Cn1cc(C(=O)N2CCN(C)CC2)c(-c2cccc3ccccc23)c1 next?
10 to 50 µM

* * *

# target or test system: Ras farnesyl transferase (Rattus norvegicus, UniProt Q02293+Q04631)
# Construct: endogenous in cells; host or cells: Rat2 fibroblasts transformed with H-Ras or with an H-Ras/K-Ras C-terminus fusion
# method description: In vivo (cellular) inhibitory activity for Ras farnesyl transferase, Rat2 cell line which expresses C-Harvey-Ras protein
# Assay type: cell-based
# run conditions: Rat2 cell line expressing C-Harvey-Ras; concentration inhibiting 50% of farnesyl bonding of Ras protein; read-out: H-Ras CIC50
Each entry below lists one item and its recorded IC50 value.

{"columns": ["smiles code", "IC50"],
 "data": [
  ["Cc1ccccc1C(=O)c1cn(Cc2c[nH]cn2)cc1-c1cccc2ccccc12", "1000 to 50000 nM"],
  ["N#Cc1ccc(Cn2cncc2Cn2cc(C(=O)N3CCOCC3)c(-c3cccc4ccccc34)c2)cc1", "< 50 nM"],
  ["COCCN(C)C(=O)c1cn(Cc2cncn2CCc2ccccc2)cc1-c1cccc2ccccc12", "12.5 nM"]
]}

We next turn to a different compound, shown below.
Which IC50 value belongs to O=C(NCCO)c1cn(Cc2c[nH]cn2)cc1-c1cccc2ccccc12 ?
1000 to 50000 nM

* * *

# target or test system: Ras farnesyl transferase (Rattus norvegicus, UniProt Q02293+Q04631)
# Construct: endogenous in cells; host or cells: Rat2 fibroblasts transformed with H-Ras or with an H-Ras/K-Ras C-terminus fusion
# method description: In vivo (cellular) inhibitory activity for Ras farnesyl transferase, Rat2 cell line transformed with fused protein of H-Ras substituted with polybasic lysine domain at C-terminus of K-Ras
# Assay type: cell-based
# run conditions: Rat2 cell line transformed with H-Ras fused with polybasic lysine domain of K-Ras C-terminus; concentration inhibiting 50% of farnesyl bonding; read-out: K-Ras CIC50
# Description: In the present experiment, Rat2 cell line which expresses C-Harvey-Ras protein having transforming activity and Rat2 cell line (Korean patent application No. 97-14409) which is transformed with fused protein of H-Ras substituted with polybasic lysine domain at C-terminus of K-Ras were used. The experiment was performed by the modified Declue's method (Declue. J. E. et al., Cancer Research, 1991, 51, 712). Hereinafter, the experimental method will be described in more detail. […]
Quick list: IC50 per entry.

// below: answered compounds
{"columns": ["smiles code", "IC50"],
 "data": [
  ["O=C(OCc1ccccc1)N1CCC(Cn2cncc2Cn2cc(C(=O)N3CCOCC3)c(-c3cccc4ccccc34)n2)CC1", "30 µM"],
  ["CN1CCN(C(=O)c2cn(Cc3cncn3Cc3ccc(C#N)cc3)cc2-c2cccc3ccccc23)CC1", "> 50 µM"],
  ["O=C(c1ccc(F)cc1)c1cn(Cc2c[nH]cn2)cc1-c1cccc2ccccc12", "10 to 100 µM"]
]}

Report IC50 for CN1CCN(C(=O)c2cn(Cc3cncn3CCc3ccccc3Cl)cc2-c2cccc3ccccc23)CC1 please.
10 to 50 µM

* * *

# target or test system: Ras farnesyl transferase (Homo sapiens, UniProt P49354+P49356)
# Construct: made in house
# method description: In vitro inhibitory activity for Ras farnesyl transferase, H-Ras substrate
# Type: biochemical
# run conditions: recombinant farnesyl transferase 4.5 nM, Ras substrate protein 1.5 μM, tritium-farnesylpyrophosphate 0.15 μM, 30 minutes at 37° C.; read-out: H-Ras IC50
Overview of reported pIC50 across a group of compounds:
In simple prose, pIC50 is minus the logarithm base ten of a concentration in moles per litre.

{"columns": ["smiles code", "pIC50"],
 "data": [
  ["N#Cc1ccc(CNC(=O)c2cn(Cc3c[nH]cn3)cc2-c2cccc3ccccc23)cc1", 6.05],
  ["COCCN(C)C(=O)c1cn(Cc2cncn2CCc2ccccc2Cl)cc1-c1cccc2ccccc12", 8.70],
  ["N#Cc1ccc(Cn2cncc2Cn2cc(C(=O)c3ccccc3)c(-c3cccc4ccccc34)c2)cc1", 8.30],
  ["O=C(OCc1ccccc1)N1CCC(Cn2cncc2Cn2cc(C(=O)N3CCOCC3)c(-c3cccc4ccccc34)n2)CC1", 6.60],
  ["COCCN(C)C(=O)c1cn(Cc2cncn2CCc2ccc(C)cc2)cc1-c1cccc2ccccc12", 8.70],
  ["N#Cc1ccc(Cn2cncc2Cn2cc(C(=O)N3CCOCC3)c(-c3cccc4ccccc34)n2)cc1", 6.60],
  ["COCCN(C)C(=O)c1cn(Cc2cncn2CC(C)C)cc1-c1cccc2ccccc12", 8.70],
  ["COCCN(C)C(=O)c1cn(Cc2cncn2CCc2ccc(Br)cc2)cc1-c1cccc2ccccc12", 8.70]
]}

Please find the next compound below.
# query: pIC50 of entry O=C(c1ccc(Oc2ccccc2)cc1)c1cn(Cc2c[nH]cn2)cc1-c1cccc2ccccc12
7.70
